biological target: T1, biotinylated goat anti-human kappa light chain; assay: ELISA; positive control; further: test concentration or dose not given here
T1 construct: Positive control of the ELISA
MEASURED PROPERTY: optical density (OD)
Write the answer as a number in OD, unit excluded.

Examples from the recorded data:
368_H01 (antibody, V domains shown, VH/VL only) VH: EVQLLESGGGLVQPGGSLRLSCAASGFTFSSYSMNWVRQAPGKGLEWVAGINYNSGYKSYADSVKGRFTISRDNSKNTLYLQMNSLRAEDTAVYYCARSATWHDTHLDYWGQGTLVTVSS VL: DIQMTQSPSSLSASVGDRVTITCRASQSILSYLNWYQQKPGKAPKLLIYATTSLASGVPSRFSGSGSGTDFTLTISSLQPEDFATYYCQQSYDNPLTFGGGTKVEIK: 3.69
365_C09 (antibody, V domains shown, VH/VL only) VH: EVQLLESGGGLVQPGGSLRLSCAASGFTFSDYGMNWVRQAPGKGLEWVSGINYNGGYKSYADSVKGRFTISRDNSKNTLYLQMNSLRAEDTAVYYCARSATWHDTHLDYWGQGTLVTVSS VL: DIQMTQSPSSLSASVGDRVTITCRASQSIVSYVNWYQQKPGKAPKLLIYAATSRASGVPSRFSGSGSGTDFTLTISSLQPEDFATYYCQQSYDTPLTFGGGTKVEIK: 3.27
374_E08 (antibody, V domains shown, VH/VL only) VH: EVQLLESGGGLVQPGGSLRLSCAASGFTFSSYGMNWVRQAPGKGLEWVAGINYNGGYKSYADSVKGRFTISRDNSKNTLYLQMNSLRAEDTAVYYCARSANWHDTALDYWGQGTLVTVSS VL: DIQMTQSPSSLSASVGDRVTITCRASQSILSYLNWYQQKPGKAPKLLIYAATSRHSGVPSRFSGSGSGTDFTLTISSLQPEDFATYYCQQSYDLPLTFGGGTKVEIK: 3.26
374_H03 (antibody, V domains shown, VH/VL only) VH: EVQLLESGGGLVQPGGSLRLSCAASGFTFSSYGMNWVRQAPGKGLEWVSGINYNSGYKSYADSVKGRFTISRDNSKNTLYLQMNSLRAEDTAVYYCARSANWHDTALDYWGQGTLVTVSS VL: DIQMTQSPSSLSASVGDRVTITCRASQSILSYVNWYQQKPGKAPKLVIYAATSRASGVPSRFSGSGSGTDFTLTISSLQPEDFATYYCQQSYDSPLTFGGGTKVEIK: 3.06

Item: 373_F03 (antibody, V domains shown, VH/VL only) VH: EVQLLESGGGLVQPGGSLRLSCAASGFTFDSYSMNWVRQAPGKGLEWVANINYNSGYTGYADSVKGRFTISRDNSKNTLYLQMNSLRAEDTAVYYCARSATWHDTHLDYWGQGTLVTVSS VL: DIQMTQSPSSLSASVGDRVTITCRASQSILTYVNWYQQKPGKAPKLLIYAATSRHSGVPSRFSGSGSGTDFTLTISSLQPEDFATYYCQQSYDSPLTFGGGTKVEIK | optical density: 3.21

Item: 376_B06 (antibody, V domains shown, VH/VL only) VH: EVQLLESGGGLVQPGGSLRLSCAASGFTFSSYSMNWVRQAPGKGLEWVAGINYNSGYKGYADSVKGRFTISRDNSKNTLYLQMNSLRAEDTAVYYCARSATWHDTHLDYWGQGTLVTVSS VL: DIQMTQSPSSLSASVGDRVTITCRASQSILTYLNWYQQKPGKAPKLLIYAATSRASGVPSRFSGSGSGTDFTLTISSLQPEDFATYYCQQSYDLPLTFGGGTKVEIK | optical density: 3.46

Item: 375_H12 (antibody, V domains shown, VH/VL only) VH: EVQLLESGGGLVQPGGSLRLSCAASGFTFSSYGMNWVRQAPGKGLEWVAGINYNGGYKGYADSVKGRFTISRDNSKNTLYLQMNSLRAEDTAVYYCARSANWHDTALDYWGQGTLVTVSS VL: DIQMTQSPSSLSASVGDRVTITCRASQSILTYLNWYQQKPGKAPKLLIYYVTNRQSGVPSRFSGSGSGTDFTLTISSLQPEDFATYYCQQSYSIPLTFGGGTKVEIK | optical density: 3.26

Item: 376_A12 (antibody, V domains shown, VH/VL only) VH: EVQLLESGGGLVQPGGSLRLSCAASGFTFSSYSMNWVRQAPGKGLEWVANINYNSGYKGYADSVKGRFTISRDNSKNTLYLQMNSLRAEDTAVYYCARSANWHDTALDYWGQGTLVTVSS VL: DIQMTQSPSSLSASVGDRVTITCRASQSILSYVNWYQQKPGKAPKLVIYAATSRASGVPSRFSGSGSGTDFTLTISSLQPEDFATYYCQQSYDTPLTFGGGTKVEIK | optical density: 3.22

Item: 376_F03 (antibody, V domains shown, VH/VL only) VH: EVQLLESGGGLVQPGGSLRLSCAASGFTFDSYGMNWVRQAPGKGLEWVANINYNGGYTGYADSVKGRFTISRDNSKNTLYLQMNSLRAEDTAVYYCARSANWHDTALDYWGQGTLVTVSS VL: DIQMTQSPSSLSASVGDRVTITCRASQSIITYVNWYQQKPGKAPKLVIYATTSLASGVPSRFSGSGSGTDFTLTISSLQPEDFATYYCQQSYSSPLTFGGGTKVEIK | optical density: 3.44

Item: 375_C12 (antibody, V domains shown, VH/VL only) VH: EVQLLESGGGLVQPGGSLRLSCAASGFTFSSYSMNWVRQAPGKGLEWVANINYNGGYTGYADSVKGRFTISRDNSKNTLYLQMNSLRAEDTAVYYCARSATWHDTHLDYWGQGTLVTVSS VL: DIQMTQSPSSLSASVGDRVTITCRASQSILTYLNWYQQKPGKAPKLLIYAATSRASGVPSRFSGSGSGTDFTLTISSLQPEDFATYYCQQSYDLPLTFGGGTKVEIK | optical density: 3.27

Data origin, for the record: patent US20210380703A1
